# SYSTEM_TESTED: UniProt F2UID9
# Sequence (F2UID9 1-329): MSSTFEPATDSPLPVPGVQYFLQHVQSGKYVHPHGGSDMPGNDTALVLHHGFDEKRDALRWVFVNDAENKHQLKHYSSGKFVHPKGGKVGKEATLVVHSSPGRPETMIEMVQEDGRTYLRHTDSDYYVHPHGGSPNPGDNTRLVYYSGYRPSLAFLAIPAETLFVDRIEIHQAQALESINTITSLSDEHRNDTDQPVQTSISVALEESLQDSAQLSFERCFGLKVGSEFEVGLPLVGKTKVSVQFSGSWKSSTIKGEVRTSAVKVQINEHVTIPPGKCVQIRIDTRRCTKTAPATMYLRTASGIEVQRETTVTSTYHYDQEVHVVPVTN
# METHOD: Inhibition of hemolytic activity (IHA) of SaroL-1 by carbohydrates
# Type: cell-based
# PARTICULARS: sugar 0.0125 mM, SaroL-1 217 nM; read-out: Mean % inhibition of hemolysis
MEASURED_ENDPOINT: inhibition

- MOLECULE: "OC[C@H]1O[C@H](OCC2O[C@@H](O)[C@H](O)[C@@H](O)[C@@H]2O)[C@H](O)[C@@H](O)[C@H]1O (stereo partly drawn) [melibiose]"
  SYSTEM_TESTED: "UniProt F2UID9"
  REPORTED_VALUE: "3.73%"
- MOLECULE: "CC(=O)N[C@H]1C(O)O[C@H](CO)[C@H](O)[C@@H]1O (stereo partly drawn) [GalNAc, N-acetylgalactosamine]"
  SYSTEM_TESTED: "UniProt F2UID9"
  REPORTED_VALUE: "8.89%"
- MOLECULE: "O=[N+]([O-])c1ccc(O[C@H]2O[C@H](CO)[C@H](O)[C@H](O)[C@H]2O)cc1 [PNPG, p-nitrophenyl-α-D-galactopyranoside]"
  SYSTEM_TESTED: "UniProt F2UID9"
  REPORTED_VALUE: "12.1%"

* * *

# SYSTEM_TESTED: hemolytic activity of SaroL-1 on rabbit erythrocytes (Salpingoeca rosetta)
# Sequence (F2UID9 1-329): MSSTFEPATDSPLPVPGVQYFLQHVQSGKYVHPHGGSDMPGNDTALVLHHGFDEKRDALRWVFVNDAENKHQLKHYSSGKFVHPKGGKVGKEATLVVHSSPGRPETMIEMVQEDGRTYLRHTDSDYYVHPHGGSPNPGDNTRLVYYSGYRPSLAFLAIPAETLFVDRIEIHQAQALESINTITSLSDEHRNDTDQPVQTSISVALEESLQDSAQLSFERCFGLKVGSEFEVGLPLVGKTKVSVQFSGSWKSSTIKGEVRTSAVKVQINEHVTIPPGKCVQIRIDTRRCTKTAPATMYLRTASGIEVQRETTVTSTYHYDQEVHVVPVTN
# METHOD: Inhibition of hemolytic activity (IHA) of SaroL-1 by carbohydrates
# Type: cell-based
# PARTICULARS: sugar 0.2 mM, SaroL-1 217 nM; read-out: Mean % inhibition of hemolysis
MEASURED_ENDPOINT: inhibition (%)

- MOLECULE: "O=[N+]([O-])c1ccc(O[C@H]2O[C@H](CO)[C@H](O)[C@H](O)[C@H]2O)cc1 [PNPG, p-nitrophenyl-α-D-galactopyranoside]"
  UNIT_INFO: "%"
  REPORTED_VALUE: 1.44
- MOLECULE: "CC(=O)N[C@H]1C(O)O[C@H](CO)[C@H](O)[C@@H]1O (stereo partly drawn) [GalNAc, N-acetylgalactosamine]"
  UNIT_INFO: "%"
  REPORTED_VALUE: 6.57
- MOLECULE: "OC[C@H]1O[C@H](OCC2O[C@@H](O)[C@H](O)[C@@H](O)[C@@H]2O)[C@H](O)[C@@H](O)[C@H]1O (stereo partly drawn) [melibiose]"
  UNIT_INFO: "%"
  REPORTED_VALUE: 15.2
